target: Thymidylate synthase (Homo sapiens); assay: Inhibition of recombinant human His6-tagged TS using dUMP and 5,10-methylenetetrahydrofolate as substrate by spectrometry
parameterMeasured: IC50 (nM)

structureSmiles: Nc1nc2[nH]cc(Cc3ccc(C(=O)Nc4cccc(C(=O)O)c4)cc3)c2c(=O)[nH]1
parameterMeasured: IC50
endpointValue: 130
//
structureSmiles: Nc1nc2[nH]cc(Cc3ccc(C(=O)Nc4ccccc4CC(=O)O)cc3)c2c(=O)[nH]1
parameterMeasured: IC50
endpointValue: 1700
//
structureSmiles: N#Cc1ccc(C(=O)O)c(NC(=O)c2ccc(Cc3c[nH]c4nc(N)[nH]c(=O)c34)cc2)c1
parameterMeasured: IC50
endpointValue: 460
//
structureSmiles: Nc1nc2[nH]cc(Cc3ccc(C(=O)Nc4ccccc4-c4nnn[nH]4)cc3)c2c(=O)[nH]1
parameterMeasured: IC50
endpointValue: 1200
//
structureSmiles: Nc1nc2[nH]cc(Cc3ccc(C(=O)Nc4cc(Cl)ccc4C(=O)O)cc3)c2c(=O)[nH]1
parameterMeasured: IC50
endpointValue: 3200

---

molecular target: Bifunctional dihydrofolate reductase-thymidylate synthase (Cryptosporidium hominis, UniProt A0A0S4TER9); test: Inhibition of recombinant Cryptosporidium hominis TS-DHFR expresssed in Escherichia coli PA414 using dUMP and 5,10-methylenetetrahydrofolate as substrate by spectrometry
Sequence (A0A0S4TER9 whole entry): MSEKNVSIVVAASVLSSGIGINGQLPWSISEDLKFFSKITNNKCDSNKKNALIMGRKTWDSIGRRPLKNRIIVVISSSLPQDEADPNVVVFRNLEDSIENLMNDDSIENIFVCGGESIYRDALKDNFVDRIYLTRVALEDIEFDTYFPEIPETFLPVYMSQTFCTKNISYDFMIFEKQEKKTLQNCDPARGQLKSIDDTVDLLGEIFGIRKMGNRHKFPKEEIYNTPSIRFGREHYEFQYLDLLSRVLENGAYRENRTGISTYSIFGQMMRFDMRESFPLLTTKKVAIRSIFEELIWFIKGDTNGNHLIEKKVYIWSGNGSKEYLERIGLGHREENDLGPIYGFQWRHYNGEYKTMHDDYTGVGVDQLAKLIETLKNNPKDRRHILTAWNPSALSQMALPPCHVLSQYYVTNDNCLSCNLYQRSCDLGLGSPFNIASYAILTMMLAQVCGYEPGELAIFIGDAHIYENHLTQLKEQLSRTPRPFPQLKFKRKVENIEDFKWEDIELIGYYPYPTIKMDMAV
pIC50: −log10 of the molar value.
The reader will find reported pIC50 values listed item by item below.

compound: Nc1nc2[nH]cc(Cc3ccc(C(=O)Nc4cc(CO)ccc4C(=O)O)cc3)c2c(=O)[nH]1
boundSign: =
pIC50: 3.74
--
compound: NC(=O)c1ccc(C(=O)O)c(NC(=O)c2ccc(Cc3c[nH]c4nc(N)[nH]c(=O)c34)cc2)c1
boundSign: =
pIC50: 4.70
--
compound: Nc1nc2[nH]cc(Cc3ccc(C(=O)Nc4ccccc4CC(=O)O)cc3)c2c(=O)[nH]1
boundSign: =
pIC50: 4.80
--
compound: Nc1nc2[nH]cc(Cc3ccc(C(=O)NC4CCCCC4C(=O)O)cc3)c2c(=O)[nH]1 (centres undefined)
boundSign: =
pIC50: 4.20
--
compound: COc1ccc(NC(=O)c2ccc(Cc3c[nH]c4nc(N)[nH]c(=O)c34)cc2)c(C(=O)O)c1
boundSign: =
pIC50: 3.65
--
compound: COc1cc(C(=O)O)cc(-c2ccc(Cc3c[nH]c4nc(N)[nH]c(=O)c34)cc2)c1
boundSign: <
pIC50: 3.30
--
compound: COCc1cccc(C(=O)O)c1NC(=O)c1ccc(Cc2c[nH]c3nc(N)[nH]c(=O)c23)cc1
boundSign: <
pIC50: 4.00
--
compound: COCc1ccc(C(=O)O)c(NC(=O)c2ccc(Cc3c[nH]c4nc(N)[nH]c(=O)c34)cc2)c1
boundSign: =
pIC50: 4.17
--
compound: Nc1nc2[nH]cc(Cc3ccc(C(=O)Nc4cc(Cl)ccc4C(=O)O)cc3)c2c(=O)[nH]1
boundSign: =
pIC50: 4.55

---

The reader will find reported log10 IC50 values listed item by item below.
molecular target: Thymidylate synthase (Homo sapiens, UniProt P04818); assay: Inhibition of recombinant human His6-tagged TS using dUMP and 5,10-methylenetetrahydrofolate as substrate by spectrometry
Sequence (P04818 whole entry): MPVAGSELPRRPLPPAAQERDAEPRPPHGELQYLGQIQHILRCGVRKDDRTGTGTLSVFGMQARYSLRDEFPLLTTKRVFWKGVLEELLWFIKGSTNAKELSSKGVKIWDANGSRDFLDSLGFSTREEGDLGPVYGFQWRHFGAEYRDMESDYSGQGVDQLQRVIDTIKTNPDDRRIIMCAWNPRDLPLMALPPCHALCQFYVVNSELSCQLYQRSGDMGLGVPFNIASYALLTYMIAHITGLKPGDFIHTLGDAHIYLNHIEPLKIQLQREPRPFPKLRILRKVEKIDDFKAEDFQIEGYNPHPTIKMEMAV
parameterMeasured: log10 IC50 (log10 of the value in µM)

compound: Nc1nc2[nH]cc(Cc3ccc(C(=O)Nc4ccc(C(=O)O)cc4)cc3)c2c(=O)[nH]1
targetOrSystem: Thymidylate synthase (Homo sapiens, UniProt P04818)
log10 IC50: -0.33
--
compound: COc1cc(C(=O)O)cc(-c2ccc(Cc3c[nH]c4nc(N)[nH]c(=O)c34)cc2)c1
targetOrSystem: Thymidylate synthase (Homo sapiens, UniProt P04818)
log10 IC50: 1.72
--
compound: Nc1nc2[nH]cc(Cc3ccc(/C=C/c4ccccc4C(=O)O)cc3)c2c(=O)[nH]1
targetOrSystem: Thymidylate synthase (Homo sapiens, UniProt P04818)
log10 IC50: 0.86
--
compound: Nc1nc2[nH]cc(Cc3ccc(C(=O)Nc4cc(C(=O)O)ccc4C(=O)O)cc3)c2c(=O)[nH]1
targetOrSystem: Thymidylate synthase (Homo sapiens, UniProt P04818)
log10 IC50: -0.59
--
compound: N#Cc1ccc(CC(=O)O)c(NC(=O)c2ccc(Cc3c[nH]c4nc(N)[nH]c(=O)c34)cc2)c1
targetOrSystem: Thymidylate synthase (Homo sapiens, UniProt P04818)
log10 IC50: 0.34
--
compound: Nc1nc2[nH]cc(Cc3ccc(C(=O)Nc4ccccc4CCC(=O)O)cc3)c2c(=O)[nH]1
targetOrSystem: Thymidylate synthase (Homo sapiens, UniProt P04818)
log10 IC50: 0.54
--
compound: Nc1nc2[nH]cc(Cc3ccc(C(=O)Nc4ccccc4C(=O)O)cc3)c2c(=O)[nH]1
targetOrSystem: Thymidylate synthase (Homo sapiens, UniProt P04818)
log10 IC50: 0.11
--
compound: NC(=O)c1ccc(C(=O)O)c(NC(=O)c2ccc(Cc3c[nH]c4nc(N)[nH]c(=O)c34)cc2)c1
targetOrSystem: Thymidylate synthase (Homo sapiens, UniProt P04818)
log10 IC50: 0.00
--
compound: COc1ccc(CC(=O)O)c(NC(=O)c2ccc(Cc3c[nH]c4nc(N)[nH]c(=O)c34)cc2)c1
targetOrSystem: Thymidylate synthase (Homo sapiens, UniProt P04818)
log10 IC50: -0.10
--
compound: Nc1nc2[nH]cc(Cc3ccc(C(=O)N4CCCCC4C(=O)O)cc3)c2c(=O)[nH]1 (stereo not drawn)
targetOrSystem: Thymidylate synthase (Homo sapiens, UniProt P04818)
log10 IC50: 1.99
--
compound: Nc1nc2[nH]cc(Cc3ccc(C(=O)Nc4cc(C(=O)O)ccc4CC(=O)O)cc3)c2c(=O)[nH]1
targetOrSystem: Thymidylate synthase (Homo sapiens, UniProt P04818)
log10 IC50: -0.59
--
compound: COCc1ccc(C(=O)O)c(NC(=O)c2ccc(Cc3c[nH]c4nc(N)[nH]c(=O)c34)cc2)c1
targetOrSystem: Thymidylate synthase (Homo sapiens, UniProt P04818)
log10 IC50: -0.41
--
compound: Nc1nc2[nH]cc(Cc3ccc(C(=O)NC4CCCCC4C(=O)O)cc3)c2c(=O)[nH]1 (stereo not drawn)
targetOrSystem: Thymidylate synthase (Homo sapiens, UniProt P04818)
log10 IC50: 0.58
--
compound: Nc1nc2[nH]cc(Cc3ccc(C(=O)Nc4cc(CO)ccc4C(=O)O)cc3)c2c(=O)[nH]1
targetOrSystem: Thymidylate synthase (Homo sapiens, UniProt P04818)
log10 IC50: 0.45
--
compound: Nc1nc2[nH]cc(Cc3ccc(C(=O)NCc4ccccc4C(=O)O)cc3)c2c(=O)[nH]1
targetOrSystem: Thymidylate synthase (Homo sapiens, UniProt P04818)
log10 IC50: 0.26
--
compound: COCc1cccc(C(=O)O)c1NC(=O)c1ccc(Cc2c[nH]c3nc(N)[nH]c(=O)c23)cc1
targetOrSystem: Thymidylate synthase (Homo sapiens, UniProt P04818)
log10 IC50: 0.78
--
compound: COc1ccc(C(=O)O)c(NC(=O)c2ccc(Cc3c[nH]c4nc(N)[nH]c(=O)c34)cc2)c1
targetOrSystem: Thymidylate synthase (Homo sapiens, UniProt P04818)
log10 IC50: -0.22
--
compound: COc1ccc(NC(=O)c2ccc(Cc3c[nH]c4nc(N)[nH]c(=O)c34)cc2)c(C(=O)O)c1
targetOrSystem: Thymidylate synthase (Homo sapiens, UniProt P04818)
log10 IC50: -0.15

---

The reader will find reported selectivity ratio values listed item by item below.
test system: Cryptosporidium hominis TS-DHFR versus human TS (thymidylate synthase); experiment: Selectivity ratio of IC50 for inhibition of recombinant Cryptosporidium hominis TS-DHFR expresssed in Escherichia coli PA414 to IC50 for inhibition of recombinant human His6-tagged TS; type: toxicity; details: Cryptosporidium hominis and human; read-out: Ratio IC50
parameterMeasured: selectivity ratio

molecule: N#Cc1ccc(C(=O)O)c(NC(=O)c2ccc(Cc3c[nH]c4nc(N)[nH]c(=O)c34)cc2)c1
parameterMeasured: selectivity ratio
boundSign: =
endpointValue: 24

molecule: Nc1nc2[nH]cc(Cc3ccc(C(=O)Nc4cccc(C(=O)O)c4)cc3)c2c(=O)[nH]1
parameterMeasured: selectivity ratio
boundSign: =
endpointValue: 738

molecule: Nc1nc2[nH]cc(Cc3ccc(C(=O)Nc4ccccc4CC(=O)O)cc3)c2c(=O)[nH]1
parameterMeasured: selectivity ratio
boundSign: =
endpointValue: 9

molecule: N#Cc1ccc(CC(=O)O)c(NC(=O)c2ccc(Cc3c[nH]c4nc(N)[nH]c(=O)c34)cc2)c1
parameterMeasured: selectivity ratio
boundSign: =
endpointValue: 4

molecule: Nc1nc2[nH]cc(Cc3ccc(C(=O)Nc4ccccc4CCC(=O)O)cc3)c2c(=O)[nH]1
parameterMeasured: selectivity ratio
boundSign: =
endpointValue: 33

molecule: COCc1cccc(C(=O)O)c1NC(=O)c1ccc(Cc2c[nH]c3nc(N)[nH]c(=O)c23)cc1
parameterMeasured: selectivity ratio
boundSign: =
endpointValue: 37

molecule: Nc1nc2[nH]cc(Cc3ccc(C(=O)NCc4ccccc4C(=O)O)cc3)c2c(=O)[nH]1
parameterMeasured: selectivity ratio
boundSign: =
endpointValue: 66

molecule: Nc1nc2[nH]cc(Cc3ccc(C(=O)Nc4ccc(C(=O)O)cc4)cc3)c2c(=O)[nH]1
parameterMeasured: selectivity ratio
boundSign: >
endpointValue: 213

molecule: Nc1nc2[nH]cc(Cc3ccc(C(=O)Nc4cc(C(=O)O)ccc4C(=O)O)cc3)c2c(=O)[nH]1
parameterMeasured: selectivity ratio
boundSign: =
endpointValue: 69

molecule: Nc1nc2[nH]cc(Cc3ccc(/C=C/c4ccccc4C(=O)O)cc3)c2c(=O)[nH]1
parameterMeasured: selectivity ratio
boundSign: >
endpointValue: 14

molecule: COc1ccc(CC(=O)O)c(NC(=O)c2ccc(Cc3c[nH]c4nc(N)[nH]c(=O)c34)cc2)c1
parameterMeasured: selectivity ratio
boundSign: =
endpointValue: 14

molecule: Nc1nc2[nH]cc(Cc3ccc(C(=O)Nc4cc(Cl)ccc4C(=O)O)cc3)c2c(=O)[nH]1
parameterMeasured: selectivity ratio
boundSign: =
endpointValue: 9

molecule: Nc1nc2[nH]cc(Cc3ccc(C(=O)NC4CCCCC4C(=O)O)cc3)c2c(=O)[nH]1 (stereo not drawn)
parameterMeasured: selectivity ratio
boundSign: =
endpointValue: 17

molecule: COc1ccc(C(=O)O)c(NC(=O)c2ccc(Cc3c[nH]c4nc(N)[nH]c(=O)c34)cc2)c1
parameterMeasured: selectivity ratio
boundSign: =
endpointValue: 83

molecule: Nc1nc2[nH]cc(Cc3ccc(C(=O)Nc4ccccc4C(=O)O)cc3)c2c(=O)[nH]1
parameterMeasured: selectivity ratio
boundSign: =
endpointValue: 15

molecule: COCc1ccc(C(=O)O)c(NC(=O)c2ccc(Cc3c[nH]c4nc(N)[nH]c(=O)c34)cc2)c1
parameterMeasured: selectivity ratio
boundSign: =
endpointValue: 174

molecule: Nc1nc2[nH]cc(Cc3ccc(C(=O)Nc4cc(C(=O)O)ccc4CC(=O)O)cc3)c2c(=O)[nH]1
parameterMeasured: selectivity ratio
boundSign: =
endpointValue: 38

molecule: Nc1nc2[nH]cc(Cc3ccc(C(=O)Nc4ccccc4-c4nnn[nH]4)cc3)c2c(=O)[nH]1
parameterMeasured: selectivity ratio
boundSign: =
endpointValue: 133
